Provide the recorded Pre-emerge Herbicidal Activity IPOHE (phytotoxicity rating, scale 0-100) for the entries that follow.
Test system: ivyleaf morningglory (Ipomoea hederacea, IPOHE)
Experiment: Pre-emerge test, greenhouse herbicide activity screening
Type: in vivo
Conditions: 63 g ai/ha; pre-emerge; rated 14 days after application; 0 = no damage, 100 = complete death
Could you keep your reply to the number by itself?

Input CCn1c(C(F)(F)F)cc(=O)n(-c2c(F)cc(Cl)c(OC)c2N)c1=O [Compound 1-15] . Output Pre-emerge Herbicidal Activity IPOHE (phytotoxicity rating, scale 0-100): 0

The recorded Pre-emerge Herbicidal Activity IPOHE (phytotoxicity rating, scale 0-100) for Cn1c(C(F)(F)F)cc(=O)n(-c2c(N)cc(OC(F)F)cc2F)c1=O [Compound 1-51] is 50

Pre-emerge Herbicidal Activity IPOHE (phytotoxicity rating, scale 0-100) recorded for this compound, Cn1c(C(F)(F)F)cc(=O)n(-c2c(F)cc(Cl)c(OC(F)F)c2N)c1=O [Compound 1-38] , is 100

Recorded Pre-emerge Herbicidal Activity IPOHE (phytotoxicity rating, scale 0-100) (compound CCOc1c(Cl)cc(F)c(-n2c(=O)cc(C(F)(F)F)n(C)c2=O)c1N [Compound 1-61] ): 60

For reference, reported Pre-emerge Herbicidal Activity IPOHE (phytotoxicity rating, scale 0-100) for COc1c(Cl)cc(F)c(-n2c(=O)cc(C(F)(F)F)n(C)c2=O)c1NC(=O)c1ccc(C)cc1 [2-24] stands at 100

COc1c(Cl)cc(F)c(-n2c(=O)cc(C(F)(F)F)n(C)c2=O)c1N1CCCC1 [Compound 1-32] has a reported Pre-emerge Herbicidal Activity IPOHE (phytotoxicity rating, scale 0-100) of 0

Sample CCc1ccc(C(=O)Nc2c(OCC#N)c(Cl)cc(F)c2-n2c(=O)cc(C(F)(F)F)n(C)c2=O)cc1 [2-28] ; Pre-emerge Herbicidal Activity IPOHE (phytotoxicity rating, scale 0-100) observed: 80

Field Pre-emerge Herbicidal Activity IPOHE (phytotoxicity rating, scale 0-100) (entry COc1c(Cl)cc(F)c(-n2c(=O)cc(C(F)(F)F)n(C)c2=O)c1NC(=O)CC#N [2-14] ) reads 0

The recorded Pre-emerge Herbicidal Activity IPOHE (phytotoxicity rating, scale 0-100) for entry COc1c(Cl)cc(F)c(-n2c(=O)cc(C(F)(F)F)n(C)c2=O)c1N [Compound 1-4] equals 100

###

Assignment: determine reported Pre-emerge herbicidal activity, phytotoxicity rating SORHA for the given molecules.
System: johnsongrass (Sorghum halepense, SORHA)
Assay: Pre-emerge test, greenhouse herbicide activity screening
Format: in vivo
Settings: 63 g ai/ha; rating scale 0-100, 14 days after application
Please state the value as a number alone, without comment.

// recorded Pre-emerge herbicidal activity, phytotoxicity rating SORHA for CCCCOC(=O)C(C)(Cl)Cc1c(OC)c(Cl)cc(F)c1-n1c(=O)cc(C(F)(F)F)n(C)c1=O (centres unmarked) [14-36] : 0

molecule COc1c(Cl)cc(F)c(-n2c(=O)cc(C(F)(F)F)n(C)c2=O)c1CC(C)(Cl)C(=O)OCc1ccccc1 (centres unmarked) [14-41] , Pre-emerge herbicidal activity, phytotoxicity rating SORHA observed: 0

Noted for O=C(Nc1cc(Cl)ccc1N1C(=O)C2CCCCN2C1=O)c1ccc2ccccc2c1 (centres unmarked) [12-8] : its Pre-emerge herbicidal activity, phytotoxicity rating SORHA reads 10

Pre-emerge herbicidal activity, phytotoxicity rating SORHA reported for this molecule CCCCOC(=O)C(Cl)Cc1c(OC)c(Cl)cc(F)c1-n1c(=O)cc(C(F)(F)F)n(C)c1=O (single isomer, unassigned) [14-9] : 0

Pre-emerge herbicidal activity, phytotoxicity rating SORHA recorded for this molecule, COc1c(Cl)cc(F)c(-n2c(=O)cc(C(F)(F)F)n(C)c2=O)c1CC(Cl)C(=O)OCC(C)C (single isomer, unassigned) [14-15] , is 0

So, CCOC(=O)C(C)(Cl)Cc1c(OC)c(Cl)cc(F)c1-n1c(=O)cc(C(F)(F)F)n(C)c1=O (centres unmarked) [14-34] ? Its Pre-emerge herbicidal activity, phytotoxicity rating SORHA was 0

Documented Pre-emerge herbicidal activity, phytotoxicity rating SORHA of COc1c(Cl)cc(F)c(-n2c(=O)cc(C(F)(F)F)n(C)c2=O)c1CC(Cl)C(=O)OCC(C)C (single isomer, unassigned) [14-14] : 0

Reported Pre-emerge herbicidal activity, phytotoxicity rating SORHA for C#CCOC(=O)C(Cl)Cc1c(OC)c(Cl)cc(F)c1-n1c(=O)cc(C(F)(F)F)n(C)c1=O (single isomer, unassigned) [14-19] was 0

For reference, reported Pre-emerge herbicidal activity, phytotoxicity rating SORHA for Nc1c(O)c(Cl)cc(F)c1N1C(=O)C2CCCCN2C1=S (single isomer, unassigned) [12-3] stands at 0

Per the record, CCOC(=O)C(Br)Cc1c(OC)c(Cl)cc(F)c1-n1c(=O)cc(C(F)(F)F)n(C)c1=O (single isomer, unassigned) [14-32] has Pre-emerge herbicidal activity, phytotoxicity rating SORHA of 0

# Pre-emerge herbicidal activity, phytotoxicity rating SORHA of CCOC(=O)CCc1c(OC)c(Cl)cc(F)c1-n1c(=O)cc(C(F)(F)F)n(C)c1=O [14-1] = 0

Entry under test: CCCCCCOC(=O)C(Cl)Cc1c(OC)c(Cl)cc(F)c1-n1c(=O)cc(C(F)(F)F)n(C)c1=O (single isomer, unassigned) [14-12] . Its Pre-emerge herbicidal activity, phytotoxicity rating SORHA was 0

Lab note: measured Pre-emerge herbicidal activity, phytotoxicity rating SORHA of CCOCCOC(=O)C(Cl)Cc1c(OC)c(Cl)cc(F)c1-n1c(=O)cc(C(F)(F)F)n(C)c1=O (centres unmarked) [14-26] was 0

Recorded Pre-emerge herbicidal activity, phytotoxicity rating SORHA (molecule COc1c(Cl)cc(F)c(N2C(=O)c3ccccc3C2=O)c1NC(=O)c1ccc(F)cc1F [13-4] ): 10
